Every entry's value here was drawn from patent US7713994B2.

# protocolSummary: I.V. and P.O. Dosing in Mice
# Format: in vivo
# protocolConditions: dose po 50 mg/kg
Here, each record is paired with measured HL_Lambda_z data.
quantityName: HL_Lambda_z (h)

{"columns": ["chemSmiles", "result"],
 "data": [
  ["CC(C)(C)c1ccc2c(c1)/C(=C/NCc1ccc(-c3ccoc3)c(O)c1)C(=O)NC2=O", 1.9],
  ["O=C1NC(=O)c2ccc(I)cc2/C1=C/NCc1ccn(-c2ccsc2)c(=O)c1", 0.8],
  ["CN1CCN(c2ccc(N/C=C3\\C(=O)NC(=O)c4ccc(-c5ccsc5)cc43)cc2)CC1", 7.4],
  ["CCCOc1ccc(CN/C=C2\\C(=O)NC(=O)c3ccc(I)cc32)cc1O", 6.1],
  ["O=C1NC(=O)c2ccc(I)cc2/C1=C/NCc1ccc(-c2ccoc2)c(O)c1", 2.6],
  ["O=C1NC(=O)c2ccc(I)cc2/C1=C/NCc1ccn(-c2ccccc2)c(=O)c1", 0.5],
  ["O=C1NC(=O)c2ccc(I)cc2/C1=C/NCc1cc(O)c(-c2ccoc2)cn1", 3.4],
  ["O=C1NC(=O)c2ccc(I)cc2/C1=C/NCc1ccn(-c2ccoc2)c(=O)c1", 3.4]
]}

----------
# tgt: cyclin D1/cdk 4 enzyme (Homo sapiens)
# Construct: made in house; host or cells: Sf9 insect cells, recombinant baculovirus
# protocolSummary: CDK4 ELISA kinase assay (phospho-Rb ser 795 detection)
# Assay type: biochemical
# protocolConditions: In Vitro Enzyme Assay, cyclin D1/cdk 4, read-out: CDK4 IC50
pIC50: −log10 of the molar value.
Here, each record is paired with measured pIC50 data.
quantityName: pIC50

{"columns": ["molecule", "result"],
 "data": [
  ["NS(=O)(=O)c1ccc(CNC=C2C(=O)NC(=O)c3ccccc32)cc1", 4.71],
  ["CN1CCN(c2ccc(N/C=C3\\C(=O)NC(=O)c4ccc(-c5cccn5C)cc43)cn2)CC1", 5.38],
  ["CN1CCN(c2ccc(N/C=C3\\C(=O)NC(=O)c4ccc(-c5ccoc5)cc43)c(F)n2)CC1 [Example 457]", 6.72],
  ["NS(=O)(=O)c1ccc(CNC=C2C(=O)NC(=O)c3ccc(-c4cccc(F)c4)cc32)cc1", 5.75]
]}

----------
# tgt: cyclin D1/cdk 4 enzyme (Homo sapiens, UniProt P11802)
# Construct: made in house; host or cells: Sf9 insect cells, recombinant baculovirus
# Sequence (P11802 whole entry, species assumed): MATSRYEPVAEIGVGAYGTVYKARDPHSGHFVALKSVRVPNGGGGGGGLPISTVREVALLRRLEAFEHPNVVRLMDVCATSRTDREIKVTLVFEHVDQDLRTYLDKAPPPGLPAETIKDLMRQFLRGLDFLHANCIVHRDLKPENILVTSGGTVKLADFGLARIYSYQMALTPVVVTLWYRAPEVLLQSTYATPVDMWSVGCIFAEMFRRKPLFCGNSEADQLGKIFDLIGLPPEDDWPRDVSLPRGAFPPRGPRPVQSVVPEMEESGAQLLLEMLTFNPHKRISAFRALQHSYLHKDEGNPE
# Sequence (P24385 whole entry partner, species assumed): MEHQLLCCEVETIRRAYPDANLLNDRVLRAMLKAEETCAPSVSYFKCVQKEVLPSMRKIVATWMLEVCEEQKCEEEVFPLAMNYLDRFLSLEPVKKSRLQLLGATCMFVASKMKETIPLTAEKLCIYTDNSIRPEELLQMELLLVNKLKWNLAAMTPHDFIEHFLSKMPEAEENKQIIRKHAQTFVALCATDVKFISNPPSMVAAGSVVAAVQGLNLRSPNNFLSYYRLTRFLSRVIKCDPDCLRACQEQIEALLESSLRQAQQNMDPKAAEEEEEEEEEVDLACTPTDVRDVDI
# protocolSummary: CDK4 ELISA kinase assay (phospho-Rb ser 795 detection)
# Assay type: biochemical
# protocolConditions: In Vitro Enzyme Assays, 200 μM ATP, read-out: CDK4 IC50
pIC50: −log10 of the molar value.
Here, each record is paired with measured pIC50 data.
quantityName: pIC50

{"columns": ["chemSmiles", "quantityName", "result"],
 "data": [
  ["CN(C)Cc1ccc(N/C=C2\\C(=O)NC(=O)c3ccc(Br)cc32)cc1", "pIC50", 6.08],
  ["O=C1NC(=O)c2ccc(-c3ccsc3)cc2/C1=C/Nc1ccc(CN2CCCCC2)cc1", "pIC50", 7.30],
  ["CN1CCN(Cc2ccc(N/C=C3\\C(=O)NC(=O)c4ccccc43)cc2)CC1", "pIC50", 5.17],
  ["CN1CCN(c2ccc(N/C=C3\\C(=O)NC(=O)c4ccc(I)cc43)cn2)CC1", "pIC50", 6.36]
]}

----------
# tgt: cyclin D1/cdk 4 enzyme (Homo sapiens, UniProt P11802)
# Construct: made in house; host or cells: Sf9 insect cells, recombinant baculovirus
# protocolSummary: CDK4 ELISA kinase assay (phospho-Rb ser 795 detection)
# Type: biochemical
# protocolConditions: In Vitro Enzyme Assays, 200 μM ATP, read-out: CDK4 IC50
Here, each record is paired with measured IC50 data.

{"columns": ["compound", "IC50 (µM)"],
 "data": [
  ["C/C=C/C(=O)Nc1ccc(CN/C=C2\\C(=O)NC(=O)c3ccc(I)cc32)cc1OC(=O)/C=C/C [Example 343]", 7.8],
  ["O=C1NC(=O)c2ccc(I)cc2/C1=C/Nc1ccc(N2CCNCC2)nc1 [Example 410]", 2.1],
  ["CN1CCN(c2ccc(N/C=C3\\C(=O)NC(=O)c4ccc(NS(=O)(=O)c5ccccc5)cc43)cc2)CC1 [Example 188]", 33.2],
  ["CCCOc1ccc(CN/C=C2\\C(=O)NC(=O)c3ccc(I)cc32)nc1Br [Example 379]", 0.69]
]}

----------
Here, each record is paired with measured melting point data.
quantityName: melting point

{"columns": ["chemSmiles", "quantityName", "result"],
 "data": [
  ["CN(C)CCCN1CCC(c2ccc(N/C=C3\\C(=O)NC(=O)c4ccc(I)cc43)cc2)CC1", "melting point", "139 to 140 °C"],
  ["COc1ccc(CN/C=C2\\C(=O)NC(=O)c3ccc(-c4ccoc4)cc32)cc1O", "melting point", "254 to 255 °C"],
  ["CN(C)C[C@@H]1CCCN1Cc1ccc(N/C=C2\\C(=O)NC(=O)c3ccc(I)cc32)cc1", "melting point", "130 to 131 °C"],
  ["COc1cc2c(cc1Br)/C(=C/Nc1ccc(N3CCN(C)CC3)cc1)C(=O)NC2=O", "melting point", "274 to 276 °C"],
  ["COc1ccc(C#Cc2ccc3c(c2)/C(=C/Nc2ccc(N4CCN(C)CC4)cc2)C(=O)NC3=O)cc1", "melting point", "155 to 156 °C"],
  ["CN1CCN(NC(=O)Nc2ccc(N/C=C3\\C(=O)NC(=O)c4ccc(Br)cc43)cc2)CC1", "melting point", "270 to 271 °C"],
  ["CN1CCN(c2ccc(N/C=C3\\C(=O)NCc4ccccc43)cc2)CC1", "melting point", "186 to 187 °C (dec.)"],
  ["CN1CCN(c2ccc(N/C=C3\\C(=O)NC(=O)c4ccc(Br)cc43)cc2F)CC1", "melting point", "206 to 207 °C"]
]}

----------
Here, each record is paired with measured melting point data.

{"columns": ["chemSmiles", "melting point"],
 "data": [
  ["COc1ccc(CNC=C2C(=O)NCc3ccccc32)cc1O", "177 to 179 °C (dec.)"],
  ["CN1CCN(c2ccc(N/C=C3\\C(=O)NC(=O)c4ccc(Br)cc43)nc2)CC1", "191 to 192 °C"],
  ["CN1CCN(c2ccc(N/C=C3\\C(=O)N(CO)C(=O)c4ccc(Br)cc43)cc2)CC1", "141 to 142 °C"],
  ["CN1CCC(c2ccc(N/C=C3\\C(=O)NC(=O)c4ccc(-c5ccsc5)cc43)cc2)CC1", "217 to 218 °C"],
  ["O=C1NC(=O)c2ccc(I)cc2/C1=C/NCc1ccc(Cl)c(O)c1", "324 to 325 °C"]
]}

----------
# tgt: cyclin B/CDK1 enzyme (Homo sapiens, UniProt P06493)
# Construct: purchased New England BioLabs; host or cells: Sf9 insect cells, recombinant baculovirus
# Sequence (P06493 whole entry): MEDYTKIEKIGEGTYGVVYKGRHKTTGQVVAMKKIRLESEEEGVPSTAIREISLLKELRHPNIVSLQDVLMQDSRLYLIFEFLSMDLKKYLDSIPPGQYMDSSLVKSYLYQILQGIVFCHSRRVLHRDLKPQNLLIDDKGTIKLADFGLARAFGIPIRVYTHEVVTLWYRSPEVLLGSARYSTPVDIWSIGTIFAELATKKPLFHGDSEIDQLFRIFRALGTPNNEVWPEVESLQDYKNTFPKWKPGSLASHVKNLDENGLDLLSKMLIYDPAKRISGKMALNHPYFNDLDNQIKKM
# Sequence (P14635 whole entry partner): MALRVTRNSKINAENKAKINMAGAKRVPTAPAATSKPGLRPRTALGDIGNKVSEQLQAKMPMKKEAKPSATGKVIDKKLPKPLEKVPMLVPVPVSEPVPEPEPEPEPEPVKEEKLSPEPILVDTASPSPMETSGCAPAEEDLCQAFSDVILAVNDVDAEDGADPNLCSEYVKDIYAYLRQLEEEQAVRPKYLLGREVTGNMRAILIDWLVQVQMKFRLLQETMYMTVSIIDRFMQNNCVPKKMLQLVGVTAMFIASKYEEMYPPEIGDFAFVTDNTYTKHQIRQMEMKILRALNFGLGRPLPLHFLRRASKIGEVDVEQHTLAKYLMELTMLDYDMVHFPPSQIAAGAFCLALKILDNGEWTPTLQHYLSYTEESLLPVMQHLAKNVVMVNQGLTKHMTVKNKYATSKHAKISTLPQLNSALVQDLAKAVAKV
# protocolSummary: CDK1 ELISA kinase assay (phospho-Rb ser 795 detection)
# Assay type: biochemical
# protocolConditions: In Vitro Enzyme Assays, read-out: CDK1 IC50
Here, each record is paired with measured IC50 data.

{"columns": ["compound", "IC50"],
 "data": [
  ["COc1ccc(CN/C=C2\\C(=O)NC(=O)c3cccc(Br)c32)cc1O [Example 84]", "8.1 µM"],
  ["CN(C)C(=O)C1CCN(c2ccc(N/C=C3\\C(=O)NC(=O)c4ccc(I)cc43)cc2)CC1 [Example 429]", "> 50 µM"],
  ["O=C1NC(=O)c2ccc(I)cc2/C1=C/Nc1ccc(N2CCN(CCO)CC2)cc1 [Example 401]", "23.1 µM"],
  ["CON(C)C(=O)C1CCN(c2ccc(N/C=C3\\C(=O)NC(=O)c4ccc(I)cc43)cc2)CC1 [Example 432]", "> 50 µM"],
  ["CC1CN(C)[C@H](C)CN1c1ccc(N/C=C2\\C(=O)NC(=O)c3ccc(I)cc32)cc1 (stereo in doubt) [Example 233]", "> 50 µM"],
  ["COc1ccc(CN/C=C2\\C(=O)NC(=O)c3ccc(-c4ccsc4)cc32)cc1O [Example 88]", "23.3 µM"],
  ["O=C1NC(=O)c2ccc(I)cc2/C1=C/Nc1ccc(CN2CCCCC2)cc1 [Example 82]", "> 50 µM"],
  ["O=C1NC(=O)c2ccc(I)cc2/C1=C/NCc1ccc(Cl)c(O)c1 [Example 165]", "> 50 µM"]
]}

----------
# tgt: cyclin D1/cdk 4 enzyme (Homo sapiens, UniProt P11802)
# Construct: made in house; host or cells: Sf9 insect cells, recombinant baculovirus
# protocolSummary: CDK4 ELISA kinase assay (phospho-Rb ser 795 detection)
# Format: biochemical
# protocolConditions: CDK4 IC50, In Vitro Enzyme Assays, 200 μM ATP
pIC50: −log10 of the molar value.

{"columns": ["chemSmiles", "pIC50"],
 "data": [
  ["CC(C)[Si](Oc1cc(CN/C=C2\\C(=O)NC(=O)c3ccc(I)cc32)ccc1N)(C(C)C)C(C)C", 5.72],
  ["CC(C)[Si](Oc1cc(CN/C=C2\\C(=O)NC(=O)c3ccc(Br)cc32)ccc1N)(C(C)C)C(C)C", 6.41],
  ["CCN(CC)C(=O)Oc1cc(CN/C=C2\\C(=O)NC(=O)c3ccc(I)cc32)ccc1OC", 5.85],
  ["COc1ccc(CN/C=C2\\C(=O)NC(=O)c3ccccc32)cc1O", 6.68]
]}
